- assayedSystem: C27D6.4 (C27D6.4) (Caenorhabditis elegans) (UniProt Q4JFH9)
- Sequence: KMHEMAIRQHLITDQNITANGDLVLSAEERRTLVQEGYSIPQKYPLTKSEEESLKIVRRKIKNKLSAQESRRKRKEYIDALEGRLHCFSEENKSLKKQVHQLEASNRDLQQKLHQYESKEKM
Exercise: for every item that follows, state its recorded binding signal (PBM E-score (-0.5 to 0.5)).
Reply with just the number.

QUERY: For the sequence ACGTGGCT (double strand) [8-mer ACGTGGCT] , what binding signal (PBM E-score (-0.5 to 0.5)) is on record?
RESULT: 0.492

QUERY: Look up binding signal (PBM E-score (-0.5 to 0.5)) for this sequence: ACACGTGG (double strand) [8-mer ACACGTGG]
RESULT: 0.498

QUERY: If you can, please state the reported binding signal (PBM E-score (-0.5 to 0.5)) value of CCACGTGG (double strand) [8-mer CCACGTGG] .
RESULT: 0.499

QUERY: Bench note: what binding signal (PBM E-score (-0.5 to 0.5)) did ACACGTGT (double strand) [8-mer ACACGTGT] show?
RESULT: 0.497

QUERY: Which binding signal (PBM E-score (-0.5 to 0.5)) value belongs to GACGTGGC (double strand) [8-mer GACGTGGC] ?
RESULT: 0.494

QUERY: Query (sequence): ACGTGTCA (double strand) [8-mer ACGTGTCA] ; field requested: binding signal (PBM E-score (-0.5 to 0.5))
RESULT: 0.495

QUERY: Report binding signal (PBM E-score (-0.5 to 0.5)) for GCCACGTA (double strand) [8-mer GCCACGTA] please.
RESULT: 0.497

QUERY: Return reported binding signal (PBM E-score (-0.5 to 0.5)); argument: ACGTGGCA (double strand) [8-mer ACGTGGCA]
RESULT: 0.499

QUERY: Could you share which binding signal (PBM E-score (-0.5 to 0.5)) value was measured for CACGTGTC (double strand) [8-mer CACGTGTC] ?
RESULT: 0.496
